TEST_TARGET: Hck (UniProt P08631)
Sequence (P08631 whole entry, looked up): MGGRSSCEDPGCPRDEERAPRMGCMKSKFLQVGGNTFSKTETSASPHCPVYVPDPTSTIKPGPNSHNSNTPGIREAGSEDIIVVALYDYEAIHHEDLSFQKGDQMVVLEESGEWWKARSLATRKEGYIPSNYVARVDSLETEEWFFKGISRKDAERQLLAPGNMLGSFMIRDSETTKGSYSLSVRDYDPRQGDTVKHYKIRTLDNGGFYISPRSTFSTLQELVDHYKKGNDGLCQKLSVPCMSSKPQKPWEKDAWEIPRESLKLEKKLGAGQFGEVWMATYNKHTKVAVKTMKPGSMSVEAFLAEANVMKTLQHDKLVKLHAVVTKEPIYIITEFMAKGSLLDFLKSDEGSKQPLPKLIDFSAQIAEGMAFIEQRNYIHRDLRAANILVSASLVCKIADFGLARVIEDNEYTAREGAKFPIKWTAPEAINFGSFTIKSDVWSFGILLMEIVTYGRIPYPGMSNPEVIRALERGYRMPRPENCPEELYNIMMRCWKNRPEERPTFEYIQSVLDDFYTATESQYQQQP
RUN_DESCRIPTION: phosphorylation enrichment, bacterial display (enrichment ratio); higher = better substrate or ligand; peptides without Tyr show the background;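 also: 11-residue human phosphosite peptides and single-mutation variants displayed on the E. coli surface, counted by deep sequencing, each peptide's frequency after selection divided by its frequency in the unselected input library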;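 also: frequency after pTyr selection over input frequency; kinase dosed for 20-30% of maximal phosphorylation in three min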
Assign Y whenever phosphorylation enrichment does not fall below 0.7; assign N whenever it does.

Look over these answered cases.
>>> print(df.to_string())
                       sequence_text  group
0             GTYEDYVEGLR [MYL6_Y89]      Y
1     MPLTEYLKQIK [CNGB3_Y200_R203Q]      N
2   KVALVYGQMNQ [ATP5F1B_Y269_E274Q]      Y
3     RSAGKDDVYLI [MECP2_Y120_Y120D]      N
4     KAIMTYVPSFY [ACTN4_Y260_S262P]      N
5  SFCFRYRCAAQ [SUMF1_Y344_R349Q_YF]      N
6      FDNPIYQKTTE [LDLR_Y828_V827I]      Y
7            RHIEKYVDQGK [IRAK3_Y61]      Y
8      GMTLSYLFWEP [NDUFS8_Y74_R77W]      N
9      EALDFYGELRT [PTEN_Y155_V158L]      Y

input: // inclusive: phosphorylation enrichment at least 0.7? input: CTTIHKNYMCN [TP53_Y234_Y234K]
output: N

input: Follow-up item: TKFRNYLIPNG [CYP2C8_Y379_K383N]
output: N

input: Follow-up item: FPKVRYHWLVL [APTX_Y214_A212V_YF]
output: N
